RECORDED_METRIC: flash point (°C)
# value in °C; strip the unit string

These solved cases illustrate the format of a correct answer.
RECORD_SMILES | DISPLAY_UNIT | flash point
C[Si](C)(C)O[Si](C)(C)O[Si](C)(C)O[Si](C)(C)O[Si](C)(C)O[Si](C)(C)O[Si](C)(C)C | °C | 133.00
C[SiH](C)c1c(F)c(F)c(F)c(F)c1F | °C | 40.00
CC[Si](Cl)(CC)CC | °C | 30.00
C[Si](C)(C)I | °C | 15.00
CC(C)(C)[Si](Cl)(Cl)Cl | °C | 21.00
CCO[Si](OCC)(OCC)c1ccccc1 | °C | 120.00
CC(=O)O[Si](C)(OC(C)=O)OC(C)=O | °C | 85.00
CCCCCC[Si](OC)(OC)OC | °C | 62.00

Reported flash point ( `CCO[Si](OCC)(OCC)OCC` ) = 50.00

Reported flash point ( `C[Si](Cl)(Cl)CCC#N` ) = 60.00

Reported flash point ( `C[Si]1(C)O[Si](C)(C)O[Si](C)(C)O[Si](C)(C)O1` ) = 57.00

Reported flash point ( `C[Si](C)(C)c1ccccc1` ) = 40.00

Reported flash point ( `C=C[Si](C)(C)C=C` ) = 8.00

====

Criterion: flash point strictly less than 80 °C. Met: 1. Not met: 0.

MOLECULE | CAT
CN(C)N=O [N,N-dimethylnitrous amide] | 1
Nc1ccc2ccccc2c1 [naphthalen-2-amine] | 0
CCC [propane] | 1
OCCCCCCO [hexane-1,6-diol] | 0

Dear colleague, could you confirm whether flash point of NCCNCCN [N'-(2-aminoethyl)ethane-1,2-diamine] falls below 80 °C? Thanks. 0

====

The entries below are paired with their reported flash point.
# value in °C; strip the unit string

These solved cases illustrate the format of a correct answer.
COMPOUND | flash point [°C]
Cc1cccc(C)c1N.Cl [2,6-dimethylaniline;hydrochloride] | 91.00
CC=C1CC2C=CC1C2 (stereo unspecified) [5-ethylidenebicyclo[2.2.1]hept-2-ene] | 26.00
CN(C)C(=S)SSC(=S)N(C)C [dimethylcarbamothioylsulfanyl N,N-dimethylcarbamodithioate] | 138.00
CC(C)CON=O | -23.00
O=C=Nc1ccc(Cc2ccc(N=C=O)cc2)cc1 [1-isocyanato-4-[(4-isocyanatophenyl)methyl]benzene] | 218.00
COC(=O)c1ccccc1N [methyl 2-aminobenzoate] | 104.00
c1ccc(OP(Oc2ccccc2)Oc2ccccc2)cc1 | 218.00
ClCCCCCCCl | 74.00

Reported flash point ( CCC(C)C(C)CO (stereo unspecified) ) = 61.00

Reported flash point ( `CCCN(CCC)CCC` ) = 37.00

Reported flash point ( O=C(Cl)c1ccccc1 [benzoyl chloride] ) = 72.00

Reported flash point ( NC(=O)/N=N/C(N)=O [(E)-carbamoyliminourea] ) = 96.00

Reported flash point ( CCCN(CCC)C(=O)SCC [S-ethyl N,N-dipropylcarbamothioate] ) = 116.00

Reported flash point ( C=CC(=O)OCCCCCCCCCCCCC [tridecyl prop-2-enoate] ) = 132.00

Reported flash point ( CCOC(=O)CC(O)(CC(=O)OCC)C(=O)OCC [triethyl 2-hydroxypropane-1,2,3-tricarboxylate] ) = 155.00

Reported flash point ( `C=C1CC(=O)O1` ) = 34.00

Reported flash point ( `CCCCCCCCCCCS` ) = 109.00

====

RECORDED_METRIC: flash point (°C)
# value in °C; strip the unit string

RECORD_SMILES | DISPLAY_UNIT | ENDPOINT_RESULT
C[Si](C)(C)O[Si](C)(C)O[Si](C)(C)O[Si](C)(C)O[Si](C)(C)O[Si](C)(C)O[Si](C)(C)O[Si](C)(C)C | °C | 144.00

Reported flash point ( `C[Si]1(C)O[Si](C)(C)O[Si](C)(C)O[Si](C)(C)O1` ) = 57.00

Reported flash point ( `C[Si]1(C)O[Si](C)(C)O[Si](C)(C)O[Si](C)(C)O[Si](C)(C)O[Si](C)(C)O1` ) = 93.00

Reported flash point ( `CC[Si](C)(Cl)CC` ) = 15.00

====

RECORDED_METRIC: flash point (°C)
# value in °C; strip the unit string

These solved cases illustrate the format of a correct answer.
MOLECULE | flash point (°C)
FC(F)(F)c1ccccc1 | 12.00
C=C(C)C(=O)OCCCC [butyl 2-methylprop-2-enoate] | 52.00
CC(C)CC(=O)CC(C)C | 60.00

Reported flash point ( CCCCN(CC)C(=O)SCCC [S-propyl N-butyl-N-ethylcarbamothioate] ) = 51.00

Reported flash point ( CC(=O)OCC(C)OC(C)=O (stereo not given) [2-acetyloxypropyl acetate] ) = 86.00

====

Criterion: flash point strictly less than 50 °C. Met: class 1. Not met: class 0.

Dear colleague, could you confirm whether flash point of `CCC(CC)CCl` falls below 50 °C? Thanks. class 1

Dear colleague, could you confirm whether flash point of `CCCC(C)(C)Cl` falls below 50 °C? Thanks. class 1

Dear colleague, could you confirm whether flash point of CCCCCCCCC(C)Cl (stereo unspecified) falls below 50 °C? Thanks. class 0

Dear colleague, could you confirm whether flash point of CCCCCCCCC(Cl)CCCC (stereo unspecified) falls below 50 °C? Thanks. class 0

Dear colleague, could you confirm whether flash point of `CCCCCCCl` falls below 50 °C? Thanks. class 1

Dear colleague, could you confirm whether flash point of CCCC(C)(Cl)C(C)(C)C (stereo unspecified) falls below 50 °C? Thanks. class 0

====

RECORDED_METRIC: flash point (°C)
# value in °C; strip the unit string

Reported flash point ( `CCC(C(C)C)C(C)C` ) = 15

Reported flash point ( `COc1ccccc1OC` ) = 87

Reported flash point ( CC(Cl)CCCl (configuration not stated) ) = 31

Reported flash point ( COC1CCCCC1=O (configuration not stated) ) = 69

Reported flash point ( CC(=O)OCC(C)C [isobutylacetate] ) = 18

Reported flash point ( CCCC(C)C(=O)O (configuration not stated) ) = 91

Reported flash point ( CC/C=C/CCC [trans-3-heptene] ) = -7

Reported flash point ( `CC(C)c1cccc(O)c1` ) = 104

Reported flash point ( `C#CCCCCl` ) = 15

Reported flash point ( CCC(C)OC(C)CC (configuration not stated) ) = 15

Reported flash point ( `ClCCCCCCl` ) = 63

Reported flash point ( `CC(C)C1CCCCC1` ) = 35

====

RECORDED_METRIC: flash point (°C)
# value in °C; strip the unit string

These solved cases illustrate the format of a correct answer.
COMPOUND | ENDPOINT_RESULT
CC(C)CCCCC(C)C | 41
CCC(C)C(C)(C)C (centres undefined) | -3
CCCCCC(C)C(C)C (centres undefined) | 41
CC(C)C(C)C(C)C | -0
CC(CC(C)(C)C)CC(C)(C)CC(C)(C)C (centres undefined) | 95
CCCC(CC)CCC | 15
CCC(C)(CC)CC | 3
CCCC(C)C | -23

Reported flash point ( CCCC(C)CC (centres undefined) ) = -15

Reported flash point ( `CCCC(C)(C)C` ) = -23

Reported flash point ( CCCC(C)CC(C)C (centres undefined) ) = 15

Reported flash point ( `CCCC(C)(C)CCC` ) = 15

Reported flash point ( CCCCCC(C)CC (centres undefined) ) = 24

Reported flash point ( `CCC(C)(C)CC(C)C` ) = 15

Reported flash point ( CCC(C)(C)C(C)C(C)C (centres undefined) ) = 31

Reported flash point ( `CCC(C)CC` ) = -32

====

Criterion: flash point strictly less than 20 °C. Met: yes. Not met: no.

Dear colleague, could you confirm whether flash point of `CC(C)C1CCCCC1` falls below 20 °C? Thanks. no

Dear colleague, could you confirm whether flash point of COC(=O)c1ccccc1 [methyl benzoate] falls below 20 °C? Thanks. no

Dear colleague, could you confirm whether flash point of `CCCCCCCCCCCCCCCCCCCC` falls below 20 °C? Thanks. no

====

Categorize each record by its flash point using lower band (below 30 °C), central band (30 °C to below 40 °C), upper band (40 °C or more)

COMPOUND | CAT
CCCCCl | lower band
CCC(C)CCl (configuration not stated) | lower band
CCC(C)CCCl (configuration not stated) | lower band

Using the reported flash point, which band applies to CCCCCCCC(C)Cl (configuration not stated) ? upper band

Using the reported flash point, which band applies to `CCC(Cl)(CC)CC` ? central band

Using the reported flash point, which band applies to `CCC(C)(Cl)CC` ? lower band

====

The entries below are paired with their reported flash point.
# value in °C; strip the unit string

These solved cases illustrate the format of a correct answer.
COMPOUND | DISPLAY_UNIT | flash point
CCCCCCCCCCCCCCCCCC(=O)O [octadecanoic acid] | °C | 196.00
CCCCCCOCCOCCO [2-(2-hexoxyethoxy)ethanol] | °C | 141.00
OCc1ccco1 [furan-2-ylmethanol] | °C | 75.00
CCCCC(CC)CN1C(=O)C2C3C=CC(C3)C2C1=O (stereo unspecified) | °C | 177.00
ClCC(Cl)CCl [1,2,3-trichloropropane] | °C | 82.00

API: the following record is the query input.
Reported flash point ( CCCCCCCCCCCCCCCCN [hexadecan-1-amine] ) = 141.00
